Tested on: CCRF-CEM/VLB-100 cells
Experiment: Intracellular accumulation of [3H]vinblastine in CCRF-CEM/VLB-100 cells
Type: cell-based, human
Conditions: 30 μM, washed
Description: *Cells were preloaded with [^3 H] times (or without wash) with 100 ml cold medium to remove extracellular with or without a reverse prenyl compound or an MDRreversing agent. Cells were then separated from radioactive medium by microfuge oillayer method. Extracellular space counts carried down # by cells (^3 HInulin space were subtracted from the total radioactive counts.
Property label: [3H]vinblastine accumulation (fmole/10^3 cells)
# unit: fmole/10^3 cells | format: bare number

Worked set:
C=CC(C)(C)C12CC3C(=O)N(C(=O)OC(C)(C)C)C(C)C(=O)N3C1Nc1ccccc12 (stereo not drawn) [Imide-BOC-DKP 14(C), imide-BOC diketopiperazine] :: 6.10
C=CC(C)(C)C12CC3c4nc5ccccc5c(=O)n4C(C)C(=O)N3C1N(C(C)=O)c1ccccc12 (stereo not drawn) :: 12.78

Let's switch to this compound now.
[Q] Return reported [3H]vinblastine accumulation. Input compound: C=CC(C)(C)C12CC3c4nc5ccccc5c(=O)n4C(C)C(=O)N3C1Nc1ccccc12 (stereo not drawn)
[A] 5.42

---

test system: CCRF-CEM cells; test: Intracellular accumulation of [3H]vinblastine in CCRF-CEM cells; type: cell-based, human; details: 30 μM, washed
# maps each entry to its [3H]vinblastine accumulation
# unit: fmole/10^3 cells | format: bare number

Worked set:
C=CC(C)(C)C12CC3c4nc5ccccc5c(=O)n4CC(=O)N3C1N(C(C)=O)c1ccccc12 (stereo not drawn) [5-N-Ac-8-desmethyl-Ardeemin, N-Acetyl-8-desmethyl-ardeemin] :: 29.33
C=CC(C)(C)C12CC3c4nc5ccccc5c(=O)n4C(C)C(=O)N3C1Nc1ccccc12 (stereo not drawn) [Ardeemin] :: 29.94

Let's switch to this molecule now.
[Q] Return reported [3H]vinblastine accumulation. Input molecule: C=CC(C)(C)C12CC3C(=O)N(C(=O)OC(C)(C)C)C(C)C(=O)N3C1Nc1ccccc12 (stereo not drawn) [Imide-BOC-DKP 14(C), imide-BOC diketopiperazine]
[A] 30.29

Hey, just so you know, these numbers are from patent US6147076A.
